# pIC50 per entry
- System: U-251
- assayText: Antiproliferative activity against human U251 cells assessed as reduction in cell viability measured after 72 hrs by MTS assay
- Format: functional, cell-based
- conditionDescription: U-251, 72 h
pIC50: −log10 of the molar value.

compound | pIC50
COc1cccc2c1C(=O)c1c(O)c3c(c(O)c1C2=O)C[C@@](O)(C(=O)CO)C[C@@H]3O[C@H]1C[C@H](N)[C@H](O)[C@H](C)O1 [DOXORUBICIN] | 7.30
CCCCCCCCCCn1cc(-c2ccc(-c3cc(-c4ccccn4)nc(-c4ccccn4)c3)cc2)nn1 | 6.85

* * *

- System: MCF7
- assayText: Antiproliferative activity against human MCF-7 cells assessed as reduction in cell viability measured after 72 hrs by MTS assay
- Format: functional, cell-based
- conditionDescription: MCF7, 72 h
pIC50: −log10 of the molar value.

molecule | pIC50
COc1cccc2c1C(=O)c1c(O)c3c(c(O)c1C2=O)C[C@@](O)(C(=O)CO)C[C@@H]3O[C@H]1C[C@H](N)[C@H](O)[C@H](C)O1 [DOXORUBICIN] | 6.39
CCCCCCCCCCn1cc(-c2ccc(-c3cc(-c4ccccn4)nc(-c4ccccn4)c3)cc2)nn1 | 7.40
